Where do the numbers come from? From patent US20240247080A1.

Let's look at some binders and their measured EC50 hGLP1R 0.5% hP (CreLuc).
target: human GLP-1 receptor (human, UniProt P43220 24-463); test: cell-based or functional assay
Starred links: 1 amine or outer side, 2 acyl side, 3 side chain; linkers in the order of their positions; H or OH if unused. Non-standard residues stand in square brackets, D forms with d. Groups on a side chain read outwards from the residue. No end group written: not given here. *: point of attachment. C20 diacid = O=C(O)CCCCCCCCCCCCCCCCCCC(=O)*; C18 diacid = O=C(O)CCCCCCCCCCCCCCCCC(=O)*; γGlu = O=C(O)[C@H](CCC(=O)[*:2])N[*:1]; εLys = N[C@@H](CCCCN[*:1])C(=O)[*:2]; AEEA = NCCOCCOCC(=O)O; Aib = CC(C)(N)C(=O)O
Answer as a quantity: numeral, then unit.

Check out these entries, answers already filled in.
Y[Aib]EGTFTSDYSI[Aib]LEKQAQ[Aib]AFVEWLIK([εLys-γGlu-γGlu-γGlu-γGlu-γGlu-C18 diacid])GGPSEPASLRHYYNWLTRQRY-NH2 (also: TFA salt) [Compound 263] | 0.32 nM
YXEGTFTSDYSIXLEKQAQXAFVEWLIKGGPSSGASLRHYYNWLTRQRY (Aib at 2, 13, 20; K28 side chain acylated with C18DA-gGlu-gGlu-gGlu-gGlu-gGlu-OEG-OEG; C-terminal amide (NH2)) [Compound 261] | 0.15 nM
Y[Aib]EGTFTSDYSI[Aib]LEKQAQ[Aib]AFVEWLIK([εLys-γGlu-γGlu-γGlu-γGlu-γGlu-γGlu-γGlu-C20 diacid])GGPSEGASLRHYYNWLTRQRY-NH2 (also: TFA salt) [Compound 288] | 0.17 nM

Give its EC50 hGLP1R 0.5% hP (CreLuc) value. Item: Y[Aib]EGTFTSDYSI[Aib]LEKQAQ[Aib]AFVEWLIK([AEEA-AEEA-γGlu-γGlu-γGlu-γGlu-C18 diacid])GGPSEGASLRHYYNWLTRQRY-NH2 (also: TFA salt) [Compound 297]
0.12 nM

Same read-out for Y[Aib]EGTFTSDYSI[Aib]LEKQAQ[Aib]EFVEWLIK([AEEA-AEEA-γGlu-C18 diacid])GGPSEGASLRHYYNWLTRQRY-NH2 (also: TFA salt) [Compound 282] ?
0.51 nM

Subsequent entry: Y[Aib]EGTFTSDYSI[Aib]LEKQAQ[Aib]AFVEWLIK([AEEA-AEEA-γGlu-γGlu-γGlu-C18 diacid])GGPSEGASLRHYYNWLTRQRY-NH2 (also: TFA salt) [Compound 299]
0.08 nM

Same question for Y[Aib]EGTFTSDYSI[Aib]LEKQAQ[Aib]AFVEWLIK([γGlu-γGlu-γGlu-γGlu-C18 diacid])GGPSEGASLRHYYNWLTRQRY-NH2 (also: TFA salt) [Compound 294] please.
0.08 nM

Now consider Y[Aib]EGTFTSDYSI[Aib]LEKQAQ[Aib]AFIEWLIK([γGlu-γGlu-γGlu-γGlu-C20 diacid])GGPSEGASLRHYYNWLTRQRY-NH2 (also: TFA salt) [Compound 283] and answer again.
0.13 nM

Now try Y[Aib]EGTFTSDYSI[Aib]LEKQAQ[Aib]EFVEWLIK([AEEA-γGlu-γGlu-γGlu-C18 diacid])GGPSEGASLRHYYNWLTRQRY-NH2 (also: TFA salt) [Compound 274] .
0.41 nM

Ok, now Y[Aib]EGTFTSDYSI[Aib]LEKQAQ[Aib]AFVQWLIK([AEEA-AEEA-γGlu-γGlu-γGlu-γGlu-C18 diacid])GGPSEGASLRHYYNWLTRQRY-NH2 (also: TFA salt) [Compound 270]
0.07 nM
